# key: entry, value: residual activity
- system: Serine/threonine-protein kinase ULK2 (Homo sapiens)
- recorded-conditions: at 1 µM
observed-property: residual activity

> print(dat)
                         structure.as.smiles  observed.property  endpoint.result
 1  O=C1Nc2cc(Br)ccc2/C1=C1/Nc2ccccc2/C1=N\O  residual activity             102%
 2  COc1cc2ncnc(Nc3ccc(Oc4ccccc4)cc3)c2cc1OC  residual activity             109%
 3  O=c1cc(-c2cccc3c2Sc2ccccc2S3)oc(N2CCOCC2)c1  residual activity             107%
 4           CNc1cc2c(Nc3cccc(Br)c3)ncnc2cn1  residual activity             103%
 5  Cc1cncc2cccc(S(=O)(=O)N3CCCN(C(=O)CN)C[C@H]3C)c12  residual activity              93%
 6       Cc1ccc(NC2=CC(=O)c3sc(C)nc3C2=O)cc1  residual activity             101%
 7              Cc1ccc(S(=O)(=O)/C=C/C#N)cc1  residual activity             109%
 8               Cc1cc2ncc(-c3ccccc3)nc2cc1C  residual activity             104%
 9  CC(C)n1cnc2/c(=N/c3cccc(Cl)c3)nc(NCCO)[nH]c21  residual activity              68%
10  O=C1NC(=O)c2c1c1c3ccccc3[nH]c1c1[nH]c3cc(Br)ccc3c21  residual activity             108%
11       CCOc1cc2ncnc(Nc3cccc(Br)c3)c2cc1OCC  residual activity              94%
12           Ic1cccc(CSc2nnc(-c3ccncc3)o2)c1  residual activity              98%
